Target: T1, extracellular domain (ECD) of human αKlotho, amino acids E34-S981 with C-terminal 6-His tag (R&D Systems … (human, UniProt Q9UEF7 34-981))
T1 construct: range 34-981; also called αKlotho (aa34-981); target antigen
T1 sequence: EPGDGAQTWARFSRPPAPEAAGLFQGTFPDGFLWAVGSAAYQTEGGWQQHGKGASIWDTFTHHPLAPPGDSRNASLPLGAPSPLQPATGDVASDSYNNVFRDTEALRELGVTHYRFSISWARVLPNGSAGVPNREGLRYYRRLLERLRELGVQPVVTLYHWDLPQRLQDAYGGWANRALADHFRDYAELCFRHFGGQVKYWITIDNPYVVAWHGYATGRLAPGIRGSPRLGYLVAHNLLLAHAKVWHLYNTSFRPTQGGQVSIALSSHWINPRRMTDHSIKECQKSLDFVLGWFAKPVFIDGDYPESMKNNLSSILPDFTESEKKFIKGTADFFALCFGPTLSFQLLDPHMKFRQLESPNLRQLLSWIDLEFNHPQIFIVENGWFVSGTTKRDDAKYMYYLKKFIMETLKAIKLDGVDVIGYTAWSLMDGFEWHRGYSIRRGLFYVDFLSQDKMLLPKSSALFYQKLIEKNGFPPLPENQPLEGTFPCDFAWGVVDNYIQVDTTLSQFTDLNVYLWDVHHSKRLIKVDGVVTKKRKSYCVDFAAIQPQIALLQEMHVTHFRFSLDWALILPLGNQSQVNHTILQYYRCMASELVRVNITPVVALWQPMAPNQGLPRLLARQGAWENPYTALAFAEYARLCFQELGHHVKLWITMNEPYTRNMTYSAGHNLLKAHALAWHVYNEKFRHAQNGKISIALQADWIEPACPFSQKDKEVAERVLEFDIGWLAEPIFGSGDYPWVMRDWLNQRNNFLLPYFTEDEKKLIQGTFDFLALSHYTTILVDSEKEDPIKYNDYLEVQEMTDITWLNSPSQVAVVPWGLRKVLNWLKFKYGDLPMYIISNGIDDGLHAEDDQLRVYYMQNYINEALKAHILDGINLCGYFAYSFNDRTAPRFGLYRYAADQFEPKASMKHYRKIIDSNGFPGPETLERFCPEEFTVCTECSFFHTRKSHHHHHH
Experiment: SPR, Fab captured by anti-H+L IgG, αKlotho injected at 50 to 6.25 ug/ml, Langmuir fit [continued]
assay.metric: kon (M⁻¹ s⁻¹)
Please state the figure in M⁻¹ s⁻¹; there is no need to write the unit.

query: Using the record for anti-αKlotho Fab clone 4821 (Fab, V domains shown, Fab (also as Fab-phage); FLAG tag on light chain; also called sb190) VH: EVQLVESGGGLVQPGGSLRLSCAASGFNLYYSYMHWVRQAPGKGLEWVASISPYSGSTYYADSVKGRFTISADTSKNTAYLQMNSLRAEDTAVYYCARSGFSSWWWVVSYAFDYWGQGTLVTVSS VL: DIQMTQSPSSLSASVGDRVTITCRASQSVSSAVAWYQQKPGKAPKLLIYSASSLYSGVPSRFSGSRSGTDFTLTISSLQPEDFATYYCQQSSYSLITFGQGTKVEIKR , report its kon.
result: 973000

query: Again, but for anti-αKlotho Fab clone 4832 (Fab, V domains shown, Fab (also as Fab-phage); FLAG tag on light chain; also called sb201) VH: EVQLVESGGGLVQPGGSLRLSCAASGFNFSSSSIHWVRQAPGKGLEWVAYISSSYGYTSYADSVKGRFTISADTSKNTAYLQMNSLRAEDTAVYYCARASGWFSHFYPAAVSGMDYWGQGTLVTVSS VL: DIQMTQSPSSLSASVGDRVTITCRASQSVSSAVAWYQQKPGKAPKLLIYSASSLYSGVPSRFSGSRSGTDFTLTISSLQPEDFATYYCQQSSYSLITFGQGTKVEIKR
result: 374000
